The measurements presented in this section are drawn from patent US11739098B2.

# MEASURED TARGET: human TLR8 (Homo sapiens, UniProt Q9NR97)
# Sequence (Q9NR97 27-1041): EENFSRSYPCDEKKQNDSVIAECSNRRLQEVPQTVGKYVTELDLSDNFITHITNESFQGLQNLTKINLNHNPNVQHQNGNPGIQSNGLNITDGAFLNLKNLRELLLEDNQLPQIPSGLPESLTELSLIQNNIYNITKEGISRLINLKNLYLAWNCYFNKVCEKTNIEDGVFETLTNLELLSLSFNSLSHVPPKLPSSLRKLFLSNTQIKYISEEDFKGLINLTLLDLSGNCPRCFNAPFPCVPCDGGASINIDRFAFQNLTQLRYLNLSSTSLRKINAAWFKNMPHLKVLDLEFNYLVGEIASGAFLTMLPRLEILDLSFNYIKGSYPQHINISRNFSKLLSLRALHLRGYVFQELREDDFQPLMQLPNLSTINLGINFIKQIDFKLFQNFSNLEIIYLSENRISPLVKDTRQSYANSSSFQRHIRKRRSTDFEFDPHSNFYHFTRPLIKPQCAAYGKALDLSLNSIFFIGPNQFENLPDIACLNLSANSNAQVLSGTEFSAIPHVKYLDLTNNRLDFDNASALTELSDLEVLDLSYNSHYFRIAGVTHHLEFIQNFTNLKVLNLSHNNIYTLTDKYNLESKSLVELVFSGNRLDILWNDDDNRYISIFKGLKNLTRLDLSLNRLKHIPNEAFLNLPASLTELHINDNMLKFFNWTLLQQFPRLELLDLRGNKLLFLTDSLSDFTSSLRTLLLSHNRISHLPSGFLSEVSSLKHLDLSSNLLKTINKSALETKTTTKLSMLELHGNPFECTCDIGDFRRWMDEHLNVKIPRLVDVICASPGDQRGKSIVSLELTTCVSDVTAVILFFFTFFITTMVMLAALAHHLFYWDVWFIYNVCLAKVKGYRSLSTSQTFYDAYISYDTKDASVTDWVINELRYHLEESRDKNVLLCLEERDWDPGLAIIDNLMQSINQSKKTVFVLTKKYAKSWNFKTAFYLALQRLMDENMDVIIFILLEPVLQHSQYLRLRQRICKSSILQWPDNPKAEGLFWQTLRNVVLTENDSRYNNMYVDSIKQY
# EXPERIMENT DESCRIPTION: TLR8 inhibition reporter assay (HEK-Blue cells, SEAP reporter, R848 stimulation)
# APPLIED CONDITIONS: HEK-Blue cells overexpressing human TLR8, SEAP reporter, R848 15.9 μM
pIC50: −log10 of the molar value.
ASSAY ENDPOINT: pIC50

(Q) Item CCc1c(-c2cnc3[nH]ncc3c2)[nH]c2ccc(C3CCNCC3)cc12 [Example 53] with human TLR8 (Homo sapiens, UniProt Q9NR97) - pIC50?
(A) > 7.00
